Target: mutant MGL (Homo sapiens, UniProt Q99685, L169S/L176S)
Sequence (Q99685 1-303 L169S/L176S): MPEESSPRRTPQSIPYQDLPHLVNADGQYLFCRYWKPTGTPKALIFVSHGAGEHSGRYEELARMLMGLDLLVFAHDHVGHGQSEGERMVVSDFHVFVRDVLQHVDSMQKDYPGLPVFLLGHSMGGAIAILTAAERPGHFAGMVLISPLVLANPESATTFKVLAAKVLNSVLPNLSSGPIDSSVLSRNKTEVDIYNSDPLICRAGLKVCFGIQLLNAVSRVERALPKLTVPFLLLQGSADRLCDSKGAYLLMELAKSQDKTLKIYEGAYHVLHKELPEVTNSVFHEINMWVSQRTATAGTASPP
Test: MGL ThermoFluor Assay-Mutant
Details: read-out: MGL mutant ThermoFluor qKd (μM) (using qNMR conc.), ThermoFluor, compound concentration measured by qNMR
experimental.endpoint: log10 of Kd (log10 of the value in µM)

structure.as.smiles: O=C(c1ccc[nH]1)N1CCN(C2CN(C(=O)c3nn(-c4ccc(Cl)cc4Cl)c4c3CCCC4)C2)CC1
value.measured: 0.82
--
structure.as.smiles: Cc1c(C(=O)N2CCN(C3CN(C(=O)c4nccs4)C3)CC2)n(C)c2ccc(Cl)cc12
value.measured: 0.00
--
structure.as.smiles: Cc1cc2nc(C(=O)N3CC(N4CCN(C(=O)c5nccs5)CC4)C3)cn2cc1Br
value.measured: 0.30
--
structure.as.smiles: O=C(c1ccc(OCc2cccc(Br)n2)cc1)N1CC(N2CCN(C(=O)C(F)(F)F)CC2)C1
value.measured: 0.16
--
structure.as.smiles: O=C(c1ccccc1)N1CCN(C2CN(C(=O)c3ccc4c(ccn4-c4ccccc4)c3F)C2)CC1
value.measured: -1.43
--
structure.as.smiles: O=C(c1nccs1)N1CCN(C2CN(C(=O)c3nn(-c4ccc(Cl)cc4Cl)c4c3CCCC4)C2)CC1
value.measured: -0.13

---

Molecular target: MGL (Rattus norvegicus, UniProt Q8R431)
Construct: one g rat brain was homogenized
Sequence (Q8R431 1-303): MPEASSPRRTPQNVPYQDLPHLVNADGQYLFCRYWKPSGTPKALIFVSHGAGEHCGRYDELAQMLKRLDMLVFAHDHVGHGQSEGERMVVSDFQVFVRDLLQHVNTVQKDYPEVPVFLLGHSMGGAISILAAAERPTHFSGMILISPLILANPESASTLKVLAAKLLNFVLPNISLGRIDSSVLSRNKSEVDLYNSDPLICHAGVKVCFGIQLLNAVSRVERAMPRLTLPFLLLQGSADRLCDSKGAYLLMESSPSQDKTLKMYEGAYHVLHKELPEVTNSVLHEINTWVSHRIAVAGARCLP
Assay: 2-AG Accumulation Assay (rat brain homogenate)
Format: biochemical
Details: compound 1 μM, percent of vehicle 2-AG accumulation
Kind request: treat 1000% as inclusive, so Rat Brain 2AG % VehCntrl (%) @1 μM at 1000% or higher is MET, anything lower is NOT MET.

structure.as.smiles: O=C(c1nn(-c2ccc(Cl)cc2Cl)c2c1CCC/C2=C\c1ccc(Cl)cc1)N1CC(N2CCN(C(=O)C(F)(F)F)CC2)C1
system: MGL (Rattus norvegicus, UniProt Q8R431)
label.class: NOT MET
--
structure.as.smiles: O=C(c1nccs1)N1CCN(C2CN(C(=O)c3sc4cc(C(F)(F)F)ccc4c3Cl)C2)CC1
system: MGL (Rattus norvegicus, UniProt Q8R431)
label.class: MET
--
structure.as.smiles: O=C(c1ccc2c(-c3ccccc3)cccc2c1)N1CC(N2CCN(C(=O)c3nccs3)CC2)C1
system: MGL (Rattus norvegicus, UniProt Q8R431)
label.class: MET
--
structure.as.smiles: O=C(c1nccs1)N1CCN(C2CN(C(=O)c3sc4cc(Br)ccc4c3Cl)C2)CC1
system: MGL (Rattus norvegicus, UniProt Q8R431)
label.class: MET
--
structure.as.smiles: O=C(c1ccc2c(ccn2-c2cccc(C(F)(F)F)c2)c1)N1CC(N2CCN(C(=O)c3nccs3)CC2)C1
system: MGL (Rattus norvegicus, UniProt Q8R431)
label.class: MET
--
structure.as.smiles: O=C(c1ccc(-c2cccc(C(F)(F)F)c2)cc1)N1CC(N2CCN(C(=O)c3nccs3)CC2)C1
system: MGL (Rattus norvegicus, UniProt Q8R431)
label.class: MET

---

Target: mutant MGL (Homo sapiens, UniProt Q99685, L169S/L176S)
Assay: MGL ThermoFluor Assay-Mutant
Details: read-out: MGL mutant ThermoFluor Kd, 0.07 mg/ml, fit of concentration-response of Tm
experimental.endpoint: Kd

compound: O=C(c1cc2cc(Br)ccc2o1)N1CC(N2CCN(C(=O)c3nccs3)CC2)C1 [Cpd 812]
value.measured: 644 nM

compound: O=C(c1nccs1)N1CCN(C2CN(C(=O)c3c[nH]nc3-c3ccccc3)C2)CC1 [Cpd 1475]
value.measured: > 31200 nM

compound: O=C(c1ccc(-c2cccc(C(F)(F)F)c2)c(Cl)c1)N1CC(N2CCN(C(=O)c3cscn3)CC2)C1 [Cpd 1102]
value.measured: 6 nM

compound: O=C(c1nccs1)N1CCN(C2CN(C(=O)c3cccc4c3CN(c3ccccc3)CC4)C2)CC1 [Cpd 805]
value.measured: 6400 nM

compound: O=C(c1nccs1)N1CCN(C2CN(C(=O)c3cccc4nc(-c5ccccc5)[nH]c34)C2)CC1 [Cpd 1255]
value.measured: 48 nM

compound: O=C(c1ccccc1)N1CCN(C2CN(C(=O)c3cc4cc(Br)ccc4o3)C2)CC1 [Cpd 1492]
value.measured: 18800 nM

---

As shown below, each of these compounds has a reported IC50 value.
Molecular target: purified wild type MGL (wt-MGLL 6H-11-313) (Homo sapiens, UniProt Q99685)
Conditions: read-out: MGL wild type inh IC50, substrate 4MU-B 10 μM, enzyme 5 nM, 37° C.

structure.as.smiles: Cc1cc2nc(C(=O)N3CC(N4CCN(C(=O)c5nccs5)CC4)C3)cn2cc1Br
IC50: 8.08 µM
//
structure.as.smiles: O=C(c1nccs1)N1CCN(C2CN(C(=O)c3c[nH]nc3-c3ccccc3)C2)CC1
IC50: > 16.7 µM
//
structure.as.smiles: O=C(c1cc2cc(Br)ccc2o1)N1CC(N2CCN(C(=O)c3nccs3)CC2)C1
IC50: 2.19 µM
//
structure.as.smiles: O=C(c1ccc(-c2ccccc2)cc1)N1CC(N2CCN(C(=O)c3ccccc3)CC23CC3)C1
IC50: > 16.7 µM
//
structure.as.smiles: Cc1sc(C(=O)N2CC(N3CCN(C(=O)c4nccs4)CC3)C2)cc1Br
IC50: 0.342 µM
//
structure.as.smiles: O=C(c1ccc(-c2ccc(Cl)cc2)[nH]1)N1CC(N2CCN(C(=O)c3nccs3)CC2)C1
IC50: 8.78 µM
//
structure.as.smiles: O=C(c1ccccc1)N1CCN(C2CN(C(=O)c3cc4cc(Br)ccc4o3)C2)CC1
IC50: > 16.7 µM
//
structure.as.smiles: O=C(c1cn2cc(Cl)cc(Br)c2n1)N1CC(N2CCN(C(=O)c3nccs3)CC2)C1
IC50: > 16.7 µM

---

Biological target: purified wild type MGL (wt-MGLL 6H-11-313) (Homo sapiens)
Conditions: read-out: MGL wild type inh IC50, 4MU-B substrate 10 μM, 37° C.
experimental.endpoint: IC50

structure.as.smiles: O=C(c1ccccc1)N1CCN(C2CN(C(=O)c3ccc(Oc4cccc(F)n4)cc3)C2)CC1
experimental.endpoint: IC50
value.measured: 2680 nM
//
structure.as.smiles: O=C(c1nccs1)N1CCN(C2CN(C(=O)c3cccc4c3CN(c3ccccc3)CC4)C2)CC1
experimental.endpoint: IC50
value.measured: 2000 nM
//
structure.as.smiles: O=C(c1ccc(OCc2cccc(Br)n2)cc1)N1CC(N2CCN(C(=O)C(F)(F)F)CC2)C1
experimental.endpoint: IC50
value.measured: 2500 nM
//
structure.as.smiles: O=C(c1ccc(SCc2cccc(C(F)(F)F)c2)cc1)N1CC(N2CCN(C(=O)c3cscn3)CC2)C1
experimental.endpoint: IC50
value.measured: 162 nM

---

Molecular target: MGL (Rattus norvegicus)
Construct: one g rat brain was homogenized
Test: 2-AG Accumulation Assay (rat brain homogenate)
Type: biochemical
Conditions: compound 1 μM, percent of vehicle 2-AG accumulation
As shown below, each of these compounds has a reported Rat Brain 2AG % VehCntrl (%) @1 μM value.

compound: Cn1cc(-c2cccc(F)c2)c2ccc(C(=O)N3CC(N4CCN(C(=O)c5nccs5)CC4)C3)cc21 [Cpd 1142]
Rat Brain 2AG % VehCntrl (%) @1 μM: 1314

compound: Cc1c(Cc2ccc(C(F)(F)F)cc2)cccc1C(=O)N1CC(N2CCN(C(=O)c3nccs3)CC2)C1 [Cpd 1008]
Rat Brain 2AG % VehCntrl (%) @1 μM: 1125

compound: O=C(c1ccc2c(ccn2-c2ccc(C(F)(F)F)cc2)c1)N1CC(N2CCN(C(=O)c3cscn3)CC2)C1 [Cpd 1359]
Rat Brain 2AG % VehCntrl (%) @1 μM: 1016

compound: O=C(c1ccc2c(ccn2-c2cccc(C(F)(F)F)c2)c1)N1CC(N2CCN(C(=O)c3cscn3)CC2)C1 [Cpd 1408]
Rat Brain 2AG % VehCntrl (%) @1 μM: 1475

compound: O=C(c1ccc2nc(-c3ccccc3)sc2c1)N1CC(N2CCN(C(=O)c3nccs3)CC2)C1 [Cpd 1125]
Rat Brain 2AG % VehCntrl (%) @1 μM: 1228

compound: Cn1cc(-c2ccccc2)c2ccc(C(=O)N3CC(N4CCN(C(=O)c5nccs5)CC4)C3)cc21 [Cpd 1132]
Rat Brain 2AG % VehCntrl (%) @1 μM: 1259

compound: O=C(c1ccc2nc(-c3cccc(C(F)(F)F)c3)oc2c1)N1CC(N2CCN(C(=O)c3nccs3)CC2)C1 [Cpd 1158]
Rat Brain 2AG % VehCntrl (%) @1 μM: 1623

compound: O=C(c1ccc2c(-c3cccc(F)c3)c[nH]c2c1)N1CC(N2CCN(C(=O)c3nccs3)CC2)C1 [Cpd 1319]
Rat Brain 2AG % VehCntrl (%) @1 μM: 1276

compound: O=C(c1nccs1)N1CCN(C2CN(C(=O)c3cccc4nc(-c5ccccc5)[nH]c34)C2)CC1 [Cpd 1255]
Rat Brain 2AG % VehCntrl (%) @1 μM: 147

compound: O=C(c1ccc2c(ccn2-c2ccc(C(F)(F)F)cc2)c1)N1CC(N2CCN(C(=O)c3nccs3)CC2)C1 [Cpd 1357]
Rat Brain 2AG % VehCntrl (%) @1 μM: 2570

compound: O=C(c1ccc2c(c1)CCN(Cc1cccc(C(F)(F)F)c1)C2)N1CC(N2CCN(C(=O)c3nccs3)CC2)C1 [Cpd 879]
Rat Brain 2AG % VehCntrl (%) @1 μM: 1027

compound: Cn1cc(-c2ccc(F)cc2)c2ccc(C(=O)N3CC(N4CCN(C(=O)c5nccs5)CC4)C3)cc21 [Cpd 1318]
Rat Brain 2AG % VehCntrl (%) @1 μM: 1282

compound: O=C(c1ccc2c(-c3cccc(C(F)(F)F)c3)c[nH]c2c1)N1CC(N2CCN(C(=O)c3nccs3)CC2)C1 [Cpd 1341]
Rat Brain 2AG % VehCntrl (%) @1 μM: 1149

compound: O=C(c1ccc(OCc2cccc(Cl)c2)cc1)N1CC(N2CCN(C(=O)c3nccs3)CC2)C1 [Cpd 957]
Rat Brain 2AG % VehCntrl (%) @1 μM: 1442

compound: Cn1cc(Cc2ccc(F)cc2)c2ccc(C(=O)N3CC(N4CCN(C(=O)c5nccs5)CC4)C3)cc21 [Cpd 1026]
Rat Brain 2AG % VehCntrl (%) @1 μM: 1014
